target: human kallikrein 7 (Homo sapiens, UniProt P49862); assay: Kallikrein-7 inhibitory activity in vitro (fluorescence-quenched substrate); type: biochemical; details: hKallikrein7 IC 50, Table 11
Sequence (P49862 30-253): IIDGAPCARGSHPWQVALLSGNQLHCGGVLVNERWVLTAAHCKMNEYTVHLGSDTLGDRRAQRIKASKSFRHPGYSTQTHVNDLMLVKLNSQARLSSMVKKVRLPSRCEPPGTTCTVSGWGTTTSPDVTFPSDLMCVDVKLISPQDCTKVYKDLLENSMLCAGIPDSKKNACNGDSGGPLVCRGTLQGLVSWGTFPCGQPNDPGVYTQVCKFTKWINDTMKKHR
*1 amine or outer side, *2 acyl side, *3 side chain or, on linkers, in order; H or OH if unused. Where a SMILES comes first, the peptide text is derived from it. Bridges are numbered along the chain shown (N, C = ends). [ ]: non-standard residue; d: D form. The star is where a group is joined. ξ: configuration not given here. X1 = O=C([C@@H]1CC[C@H](O)N1[*:1])[*:2]; NMeY = CN[C@@H](Cc1ccc(O)cc1)C(=O)O; Ile(3ξ) = CCC(C)[C@H](N)C(=O)O; Isobutyryl = CC(C)C(=O)*
I'd appreciate it if you marked entries Condition met when IC50 is lower than 6 nM and Condition not met when it is not.

Example entries begin here.
1. CCC(C)C1NC(=O)C(Cc2ccc(O)cc2)N(C)C(=O)C(C(C)CC)N2C(=O)C(CCC2OC)NC(=O)C(CC(C)C)NC(=O)C(NC(=O)C(CCC(=O)OC)NC(=O)C(C)C)C(C)OC1=O (centres unmarked) ... Condition met
2. CCC(C)[C@@H]1NC(=O)[C@H](Cc2ccc(O)cc2)N(C)C(=O)[C@H](C(C)CC)N2C(=O)C(CC[C@@H]2O)NC(=O)[C@H](CC(C)C)NC(=O)[C@@H](NC(=O)[C@H](CCC(N)=O)NC(C)=O)[C@@H](C)OC1=O (some centres unmarked) ... Condition met
3. CCC(C)[C@@H]1NC(=O)[C@H](Cc2ccc(O)cc2)N(C)C(=O)[C@H](C(C)CC)N2C(=O)C(CC[C@@H]2O)NC(=O)[C@H](CC(C)C)NC(=O)[C@@H](NC(=O)[C@H](CCC(=O)O)NC(=O)C(C)C)[C@@H](C)OC1=O (some centres unmarked) ... Condition not met
4. CCC(C)[C@@H]1NC(=O)[C@H](Cc2ccc(OC(=O)OCC(C)C)cc2)N(C)C(=O)[C@H](C(C)CC)N2CCCC(NC(=O)[C@H](CC(C)C)NC(=O)[C@@H](NC(=O)[C@H](CCC(N)=O)NC(=O)C(C)C)[C@@H](C)OC1=O)C2=O (some centres unmarked) ... Condition met

Data request: Record CCC(C)C1NC(=O)C(Cc2ccc(O)cc2)N(C)C(=O)C(C(C)CC)N2C(=O)C(CCC2OCCOCCO)NC(=O)C(CC(C)C)NC(=O)C(NC(=O)C(CCC(N)=O)NC(=O)C(C)C)C(C)OC1=O (centres unmarked) : is its IC50 strictly below 6 nM?
Data returned: Condition not met

Data request: Record CCC(C)[C@@H]1NC(=O)[C@H](Cc2ccc(O)cc2)N(C)C(=O)[C@H](C(C)CC)NC(=O)[C@@H]2CC[C@H](O)N2C(=O)[C@H](CC(C)C)NC(=O)[C@@H](NC(=O)[C@H](CCC(N)=O)NC(=O)C(C)C)[C@@H](C)OC1=O (some centres unmarked) [example 46] (Isobutyryl-QTL[X1][Ile(3ξ)][NMeY][Ile(3ξ)]; ester 2-C) : is its IC50 strictly below 6 nM?
Data returned: Condition not met

---

target: human kallikrein 7 (Homo sapiens); experiment: Kallikrein-7 inhibitory activity in vitro (fluorescence-quenched substrate); format: biochemical; settings: Table 11; read-out: hKallikrein7 IC 50
Readout Kind: pIC50
In plain terms, pIC50 is the concentration in mol/L turned into minus its base-10 logarithm.

1) CCOC(=O)Oc1ccc(C[C@H]2C(=O)N[C@@H](C(C)CC)C(=O)O[C@H](C)[C@H](NC(=O)[C@H](CCC(N)=O)NC(=O)C(C)C)C(=O)N[C@@H](CC(C)C)C(=O)NC3CCCN(C3=O)[C@@H](C(C)CC)C(=O)N2C)cc1 (stereo partly shown) ... 8.52
2) CCC=CCOc1ccc(CC2C(=O)NC(C(C)CC)C(=O)OC(C)C(NC(=O)C(CCC(N)=O)NC(=O)C(C)C)C(=O)NC(CC(C)C)C(=O)NC3CCC(OCCC)N(C3=O)C(C(C)CC)C(=O)N2C)cc1 (stereo not shown) ... 8.07
3) CCC(C)C1NC(=O)C(Cc2ccc(OC(=O)OC3CCC4(C)C(=CCC5C4CCC4(C)C(C(C)CCCC(C)C)CCC54)C3)cc2)N(C)C(=O)C(C(C)CC)N2CCCC(NC(=O)C(CC(C)C)NC(=O)C(NC(=O)C(CCC(N)=O)NC(=O)C(C)C)C(C)OC1=O)C2=O (stereo not shown) ... 5.98

Could you now consider this next molecule?
Data request: Give pIC50 for the following molecule: CCCOC1CCC2NC(=O)C(CC(C)C)NC(=O)C(NC(=O)C(CCC#N)NC(=O)C(C)C)C(C)OC(=O)C(C(C)CC)NC(=O)C(Cc3ccc(O)cc3)N(C)C(=O)C(C(C)CC)N1C2=O (stereo not shown)
Data returned: 8.15

---

Biological target: Human neutrophil elastase (Homo sapiens)
Construct: purchased Elastin Products Company, Inc. (EPC, Owensville, USA) SE563
Sequence (P08246 30-267): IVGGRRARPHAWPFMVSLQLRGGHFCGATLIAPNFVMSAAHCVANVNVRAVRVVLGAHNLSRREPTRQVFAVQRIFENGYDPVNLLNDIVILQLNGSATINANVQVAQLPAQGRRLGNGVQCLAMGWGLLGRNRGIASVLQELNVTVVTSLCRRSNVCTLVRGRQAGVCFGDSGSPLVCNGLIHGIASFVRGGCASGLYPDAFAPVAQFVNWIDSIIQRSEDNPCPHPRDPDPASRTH
Assay: HNE inhibitory activity in vitro (fluorescence-quenched substrate)
Type: biochemical
Conditions: Table 11; read-out: human neutrophile elastase IC 50
Entries and their measured pIC50 follow.
In plain terms, pIC50 is the concentration in mol/L turned into minus its base-10 logarithm.

Data request: Give pIC50 for the following molecule: C=CCOc1ccc(CC2C(=O)NC(C(C)CC)C(=O)OC(C)C(NC(=O)C(CCC(N)=O)NC(=O)C(C)C)C(=O)NC(CC(C)C)C(=O)NC3CCC(OCCC)N(C3=O)C(C(C)CC)C(=O)N2C)cc1 (stereo not shown)
Data returned: 8.60

Data request: Give pIC50 for the following molecule: CCCOC1CCC2NC(=O)C(CC(C)C)NC(=O)C(NC(=O)C(CCC(N)=O)NC(=O)C(C)C)C(C)OC(=O)C(C(C)CC)NC(=O)C(Cc3ccc(OCc4cn(CCOCCOCCN=[N+]=[N-])nn4)cc3)N(C)C(=O)C(C(C)CC)N1C2=O (stereo not shown)
Data returned: 8.52

Data request: Give pIC50 for the following molecule: CCC(C)C1NC(=O)C(Cc2ccc(OC(=O)OC3CCC4(C)C(=CCC5C4CCC4(C)C(C(C)CCCC(C)C)CCC54)C3)cc2)N(C)C(=O)C(C(C)CC)N2CCCC(NC(=O)C(CC(C)C)NC(=O)C(NC(=O)C(CCC(N)=O)NC(=O)C(C)C)C(C)OC1=O)C2=O (stereo not shown)
Data returned: 5.34

Data request: Give pIC50 for the following molecule: CCC(C)C1NC(=O)C(Cc2ccc(O)cc2)N(C)C(=O)C(C(C)CC)N2CCCC(NC(=O)C(CC(C)C)NC(=O)C(NC(=O)C(CCC#N)NC(=O)C(C)C)C(C)OC1=O)C2=O (stereo not shown)
Data returned: 7.40

---

molecular target: Human neutrophil elastase (Homo sapiens); construct: purchased Elastin Products Company, Inc. (EPC, Owensville, USA) SE563; test: HNE inhibitory activity in vitro (fluorescence-quenched substrate); type: biochemical
Readout Kind: pIC50
In plain terms, pIC50 is the concentration in mol/L turned into minus its base-10 logarithm.

// worked examples, pIC50 included
1) CCC(C)[C@@H]1NC(=O)[C@H](Cc2ccc(O)cc2)N(C)C(=O)[C@H](C(C)CC)N2C(=O)C(CC[C@@H]2O)NC(=O)[C@H](CC(C)C)NC(=O)[C@@H](NC(=O)[C@H](CCC(N)=O)NC(=O)c2ccccc2)[C@@H](C)OC1=O (stereo partly shown) ... 7.52
2) CCC(C)C1NC(=O)C(Cc2ccc(O)cc2)N(C)C(=O)C(C(C)CC)N2C(=O)C(CCC2OCCO)NC(=O)C(CC(C)C)NC(=O)C(NC(=O)C(CCC(N)=O)NC(=O)C(C)C)C(C)OC1=O (stereo not shown) ... 8.30
3) CCC(C)C(=O)N[C@@H](CCC(N)=O)C(=O)N[C@@H]1C(=O)N[C@@H](CC(C)C)C(=O)NC2CC[C@H](O)N(C2=O)[C@@H](C(C)CC)C(=O)N(C)[C@@H](Cc2ccc(O)cc2)C(=O)N[C@@H](C(C)CC)C(=O)O[C@@H]1C (stereo partly shown) ... 8.00

Data request: Please respond with reported pIC50 (system Human neutrophil elastase (Homo sapiens)) for C#CCOC1CCC2NC(=O)C(CC(C)C)NC(=O)C(NC(=O)C(CCC(N)=O)NC(=O)C(C)C)C(C)OC(=O)C(C(C)CC)NC(=O)C(Cc3ccc(O)cc3)N(C)C(=O)C(C(C)CC)N1C2=O (stereo not shown) .
Data returned: 8.60
